assay.procedure: Agonist activity at human cloned P2Y6 receptor expressed in human 1321N1 by FLIPR assay
Assay type: functional
pEC50: −log10 of the molar value.
measurement.label: pEC50

Below: 2 compounds and their reported pEC50.
O=P(O)(O)OP(=O)(O)OP(=O)(O)OC[C@H]1O[C@@H](c2nc3c(F)cc(Cl)cc3s2)[C@H](O)[C@@H]1O; < 4.70
O=c1ccn([C@@H]2O[C@H](COP(=O)(O)OP(=O)(O)OP(=O)(O)O)[C@@H](O)[C@H]2O)c(=O)[nH]1 [URIDINE TRIPHOSPHATE]; 6.37

Task item: # get_value(readout='pEC50', item= O=P(O)(O)OP(=O)(O)OP(=O)(O)OC[C@H]1O[C@@H](c2nc3cc(C(F)(F)F)ccc3s2)[C@H](O)[C@@H]1O )
Reply: < 4.70

Task item: # get_value(readout='pEC50', item= O=P(O)(O)OP(=O)(O)OP(=O)(O)OC[C@H]1O[C@@H](c2nc3ccccc3s2)[C@H](O)[C@@H]1O )
Reply: < 4.70

// provenance: ChEMBL document CHEMBL1138401
